Data origin, for the record: patent US9051351B2

- assay-method-text: Serum metabolism of peptides in rat serum
- Assay type: in vitro ADME
- applied-conditions: male, Sprague Dawley, rat, rat serum, 37° C.; Mean +/− SD, N = 3; read-out: Half-Life (min), serum stability
Where a SMILES comes first, the peptide text is derived from it. [ ]: non-standard residue; d: D form. The star is where a group is joined. Hexanoyl = CCCCCC(=O)*; Ahx = NCCCCCC(=O)O
endpoint: half-life at 0.5 mg/mL (min)
Your answer should be a plain number; it is taken to be in min.

Value of measured half-life at 0.5 mg/mL for the entry CCCCCC(=O)N[C@@H](Cc1ccc(O)cc1)C(=O)N[C@H](C(=O)NCCCCCC(N)=O)[C@@H](C)CC [Dihexa] (Hexanoyl-Tyr-Ile-[Ahx]-NH2) : 336

* * *

- assay-method-text: Dihexa pharmacokinetics in rats (IV, intraperitoneal)
- Assay type: in vivo, rat
- applied-conditions: male, Sprague-Dawley, rat, plasma; IV 10 mg/kg, rats; Mean ± SEM
Where a SMILES comes first, the peptide text is derived from it. [ ]: non-standard residue; d: D form. The star is where a group is joined. Hexanoyl = CCCCCC(=O)*; Ahx = NCCCCCC(=O)O
endpoint: clearance (mL/min/kg)
Your answer should be a plain number; it is taken to be in mL/min/kg.

Value of measured clearance for the entry CCCCCC(=O)N[C@@H](Cc1ccc(O)cc1)C(=O)N[C@H](C(=O)NCCCCCC(N)=O)[C@@H](C)CC [Dihexa] (Hexanoyl-Tyr-Ile-[Ahx]-NH2) : 2.6

* * *

- assay-method-text: Serum metabolism of peptides in rat serum
- Type: in vitro ADME
- applied-conditions: male, Sprague Dawley, rat, serum, rat serum, 37° C.; Mean +/− SD, N = 3; read-out: Half-Life (min), serum stability
Where a SMILES comes first, the peptide text is derived from it. [ ]: non-standard residue; d: D form. dNle = CCCC[C@@H](N)C(=O)O; Nle = CCCC[C@H](N)C(=O)O; GABA = NCCCC(=O)O
Under this convention, satisfied denotes half-life at 500 µg/mL strictly below 20 min and not satisfied denotes half-life at 500 µg/mL at or above 20 min.

These recorded examples may help you get a feel for the data.
CC[C@H](C)[C@H](NC(=O)[C@H](Cc1ccc(O)cc1)NC(=O)CCCN)C(=O)O [GABA-Tyr-Ile] (H-[GABA]-Tyr-Ile-OH; N-terminus and C-terminus assumed) ... not satisfied
CCCC[C@@H](N)C(=O)N[C@@H](Cc1ccc(O)cc1)C(=O)N[C@H](C(=O)O)[C@@H](C)CC [D-Nle-Tyr-Ile] (H-[dNle]-Tyr-Ile-OH) ... not satisfied
CCCC[C@H](N)C(=O)N[C@@H](Cc1ccc(O)cc1)C(=O)N[C@H](C(=O)N[C@@H](Cc1c[nH]cn1)C(N)=O)[C@@H](C)CC [Nle-Tyr-Ile-His-NH2] (H-[Nle]YIH-NH2) ... not satisfied
CCCC[C@H](NC(C)=O)C(=O)N[C@@H](Cc1ccc(O)cc1)C(=O)N[C@H](C(=O)N[C@@H](Cc1c[nH]cn1)C(=O)O)[C@@H](C)CC [N-acetyl-Nle-Tyr-Ile-His] (Ac-[Nle]YIH-OH) ... not satisfied

# ---- query compound ----
Consider CCCC[C@H](N)C(=O)N[C@@H](Cc1ccc(O)cc1)C(=O)N[C@H](C(=O)N[C@@H](Cc1cnc[nH]1)C(=O)N1CCC[C@H]1C(=O)N[C@@H](Cc1ccccc1)C(=O)O)[C@@H](C)CC [Nle1-AngIV, Norleucine-YIHPF, reference compound] (H-[Nle]YIHPF-OH) . Does its half-life at 500 µg/mL lie strictly below 20 min?
satisfied

* * *

- assay-method-text: Dihexa pharmacokinetics in rats (IV, intraperitoneal)
- Format: in vivo, rat
- applied-conditions: male, Sprague-Dawley, rat, plasma; IV 10 mg/kg, rats; Mean ± SEM
Where a SMILES comes first, the peptide text is derived from it. [ ]: non-standard residue; d: D form. The star is where a group is joined. Hexanoyl = CCCCCC(=O)*; Ahx = NCCCCCC(=O)O
endpoint: Vd (L/kg)
Your answer should be a plain number; it is taken to be in L/kg.

Value of measured Vd for the entry CCCCCC(=O)N[C@@H](Cc1ccc(O)cc1)C(=O)N[C@H](C(=O)NCCCCCC(N)=O)[C@@H](C)CC [Dihexa] (Hexanoyl-Tyr-Ile-[Ahx]-NH2) : 54.4

* * *

- assay-method-text: Dihexa pharmacokinetics in rats (IV, intraperitoneal)
- Format: in vivo, rat
- applied-conditions: male, Sprague-Dawley, rat, plasma; IV 10 mg/kg, rats; Mean ± SEM, N = 3
Where a SMILES comes first, the peptide text is derived from it. [ ]: non-standard residue; d: D form. The star is where a group is joined. Hexanoyl = CCCCCC(=O)*; Ahx = NCCCCCC(=O)O
endpoint: AUC(0-inf) (ng·h/mL)
Your answer should be a plain number; it is taken to be in ng·h/mL.

Value of measured AUC(0-inf) for the entry CCCCCC(=O)N[C@@H](Cc1ccc(O)cc1)C(=O)N[C@H](C(=O)NCCCCCC(N)=O)[C@@H](C)CC [Dihexa] (Hexanoyl-Tyr-Ile-[Ahx]-NH2) : 74500

* * *

- assay-method-text: in vitro
- applied-conditions: male, rat, pooled liver microsomes, pH 7.38
endpoint: microsomal CLint at 5 µM (µL/min/mg)
Your answer should be a plain number; it is taken to be in µL/min/mg.

Value of measured microsomal CLint at 5 µM for the entry CCOc1ccc2ccc(=O)oc2c1 [7-ethoxycoumarin, reference compound] : 137

* * *

- assay-method-text: Dihexa pharmacokinetics in rats (IV, intraperitoneal)
- Type: in vivo, rat
- applied-conditions: male, Sprague-Dawley, rat, plasma, iv, 10 mg/kg, IV administration 10 mg/kg, rats; read-out: half-life (t1/2) (converted)
Where a SMILES comes first, the peptide text is derived from it. [ ]: non-standard residue; d: D form. The star is where a group is joined. Hexanoyl = CCCCCC(=O)*; Ahx = NCCCCCC(=O)O
endpoint: half-life
// return the numeric value with its unit appended

Value of measured half-life for the entry CCCCCC(=O)N[C@@H](Cc1ccc(O)cc1)C(=O)N[C@H](C(=O)NCCCCCC(N)=O)[C@@H](C)CC [Dihexa] (Hexanoyl-Tyr-Ile-[Ahx]-NH2) : 12.7 days

* * *

- assay-method-text: Serum metabolism of peptides in rat serum
- Assay type: in vitro ADME
- applied-conditions: male, Sprague Dawley, rat, rat serum; read-out: t1/2 in rat serum
Where a SMILES comes first, the peptide text is derived from it. [ ]: non-standard residue; d: D form. The star is where a group is joined. Hexanoyl = CCCCCC(=O)*; Ahx = NCCCCCC(=O)O
endpoint: half-life at 0.5 mg/mL (h)
Your answer should be a plain number; it is taken to be in h.

Value of measured half-life at 0.5 mg/mL for the entry CCCCCC(=O)N[C@@H](Cc1ccc(O)cc1)C(=O)N[C@H](C(=O)NCCCCCC(N)=O)[C@@H](C)CC [Dihexa] (Hexanoyl-Tyr-Ile-[Ahx]-NH2) : 5.5
